System: BDF1 mice, B16 melanoma ip, median survival T/C
Assay: NCI In Vivo Anticancer Drug Screen. Data for tumor model B16 Melanoma (intraperitoneal) in B6D2F1 (BDF1) mice
Conditions: endpoint: median survival time; dose: 0.5 mg/kg/injection; schedule: Q01DX009 (ip); vehicle: saline; higher = longer survival
Toxic doses and inconclusive results are not listed.
MEASUREMENT LABEL: T/C

The examples below pair each entry with its known result.
O=C1C(N2CC2)=C(N2CCCC(O)C2)C(=O)C(N2CC2)=C1N1CCCC(O)C1 (configuration not stated)
120 % of control
CN(C)CCCN1c2ccccc2Sc2ccc(C(F)(F)F)cc21
109 % of control
CC(=O)OCC12CCC(C)=CC1OC1C(OS(C)(=O)=O)C(=O)C2(C)C12CO2 (configuration not stated)
101 % of control
COc1ccc2nc3cc(Cl)ccc3c(Nc3ccc(O)c(CN(CCCl)CCCl)c3)c2c1
121 % of control

## Task State its T/C: `[Cl][Pt+2][Br].[NH-]CC[NH-]`
## Result 110 % of control

## Task Recall and state the measured T/C for `C(/C=C/C=C/N1CCCCC1)=[N+]1CCCCC1` .
## Result 101 % of control

## Task Fill in reported T/C for this entry: C1CCC2C[N-]CCC2C1.C1CCC2C[N-]CCC2C1.C1CCC2C[N-]CCC2C1.C1CCC2C[N-]CCC2C1.[Cl][Rh][Cl] (configuration not stated)
## Result 104 % of control

----------
System: BDF1 mice, B16 melanoma ip, median survival T/C
Assay: NCI In Vivo Anticancer Drug Screen. Data for tumor model B16 Melanoma (intraperitoneal) in B6D2F1 (BDF1) mice
Conditions: endpoint: median survival time; dose: 100.0 mg/kg/injection; schedule: Q01DX009 (ip); vehicle: Klucel (hydroxypropylcellulose) (HPC)
Toxic doses and inconclusive results are not listed. Rule for the calls: active = survival T/C of 150% or more; inactive = T/C below 125% in these data.
Give your call using only these classes: yes (active), no (inactive)

Some solved entries appear below for comparison.
OC(CCN1CCCC1)(c1ccccc1)C1CCCCC1 (stereo not given)
no
CNc1ccc(C(=O)O)cc1I
no
Cc1ccc(NC(=O)Nc2cccc3ccccc23)c(C)c1
no
BrCc1ccc2c3c(ccc(CBr)c13)CC2
no
COc1cc(C=Nc2cccc(C(F)(F)F)c2)ccc1O
no
CCCCCCCCC1CCC(N)CC1 (stereo not given)
no
CCOC(=O)CN1CCC(C2(c3cc4ccccc4[nH]3)OCCO2)CC1
no
CCCCCCC(=O)CCCC(C)CCCC(C)C (stereo not given)
no
CC1=CC(=Nc2ccc(N(CCCl)CCCl)cc2)C=C(C)C1=O
yes
Cc1ccc(C)c(C2NC(=O)c3ccccc3N2)c1 (stereo not given)
no

## Task How did this test come out for Cc1cccc(C)c1NC(=O)C(Cl)c1ccccc1 (stereo not given) ?
## Result no

## Task Returns: the outcome recorded for `COc1cccc(N2C(=O)CSC2=S)c1` in this assay.
## Result no

## Task Tell me the assay call for `Cn1cnc([N+](=O)[O-])c1S(=O)(=O)NCN1CCOCC1` please.
## Result no

----------
System: BDF1 mice, B16 melanoma ip, median survival T/C
Assay: NCI In Vivo Anticancer Drug Screen. Data for tumor model B16 Melanoma (intraperitoneal) in B6D2F1 (BDF1) mice
Conditions: endpoint: median survival time; dose: 1.56 mg/kg/injection; schedule: Q01DX009 (ip); vehicle: saline with Tween-80; higher = longer survival
Inconclusive results and toxic doses are left out.
MEASUREMENT LABEL: T/C

Known results for compounds:
CC1(C)N=C(N)N=C(N)N1c1ccc(CCCCc2ccc(S(=O)(=O)F)cc2Cl)c(Cl)c1
120 % of control
O=C1C(=O)c2ccccc2-c2ccccc21
100 % of control
Cc1cc(NCCCCCCCNc2cc(C)nc3cc(N)ccc23)c2ccc(N)cc2n1
100 % of control

## Task Identify the reported T/C for the following entry. CC(=O)C1=C(O)C2(O)C(=O)c3c(c(C)c4ccc(C)c(O)c4c3O)CC2C(N)C1=O (centres undefined)
## Result 100 % of control

----------
System: BDF1 mice, B16 melanoma ip, median survival T/C
Experiment: NCI In Vivo Anticancer Drug Screen. Data for tumor model B16 Melanoma (intraperitoneal) in B6D2F1 (BDF1) mice
Details: endpoint: median survival time; dose: 25.0 mg/kg/injection; schedule: Q04DX003 (ip); vehicle: Klucel (hydroxypropylcellulose) (HPC); higher = longer survival
Procedure: The antitumor activity of compounds was measured in mice bearing transplantable tumors. Survival or tumor size were measured and the results are expressed as the measurement made in the treated group (T) divided by the measurement made in the vehicle treated control group (C). The tumor model used in this assay is B16 Melanoma (intraperitoneal) in B6D2F1 (BDF1) mice
Inconclusive results and toxic doses are left out.
MEASUREMENT LABEL: T/C

The examples below pair each entry with its known result.
Cc1cccc(-c2nc3cc(Cl)ccc3c(=O)o2)c1
103 % of control
C=CCOCC(O)CN(CCC(C)C)CCC(C)C (stereo unspecified)
91 % of control
CCN(CC)N=Nc1ccccc1-c1nc(N)c2ccccc2n1
94 % of control
CC(Br)C1(c2cccc([N+](=O)[O-])c2)OCCO1 (stereo unspecified)
94 % of control
O=C(CBr)c1ccc(-c2ccccc2)cc1
102 % of control

## Task Return T/C (reported value) for this compound: `CN(C)C1CCCCC1`
## Result 100 % of control

## Task Determine its reported T/C: CC(=O)OCC(OC(C)=O)C(OC(C)=O)C(C#N)OC(C)=O (stereo unspecified)
## Result 95 % of control

----------
System: BDF1 mice, B16 melanoma ip, median survival T/C
Test: NCI In Vivo Anticancer Drug Screen. Data for tumor model B16 Melanoma (intraperitoneal) in B6D2F1 (BDF1) mice
Conditions: endpoint: median survival time; dose: 6.25 mg/kg/injection; schedule: Q01DX009 (ip); vehicle: Klucel (hydroxypropylcellulose) (HPC); higher = longer survival
Toxic doses and inconclusive results are not listed.
MEASUREMENT LABEL: T/C

C=C(Cl)C(=NC(C)(C)C)Nc1ccccc1C
86 % of control
S=C=NCC(Br)CBr (configuration not stated)
86 % of control
CC(C)(SCCc1ccc([N+](=O)[O-])cc1)C(N)C(=O)O (configuration not stated)
88 % of control
CC(C)Oc1ccc2c(c1)N(CCC1CCCCN1)c1ccccc1S2 (configuration not stated)
112 % of control
O=[N+]([O-])/C=C/C(Cl)(Cl)Cl
100 % of control
CC(Cc1ccccc1)NC(=O)CCNNC(=O)c1ccncc1 (configuration not stated)
89 % of control

Kindly review the next compound as well.
## Task Retrieve T/C measured for `Nc1ccc(-c2ccc3ccccc3n2)cc1` and print it.
## Result 111 % of control

----------
Recorded T/C, one value per entry.
Tested on: BDF1 mice, B16 melanoma ip, median survival T/C
Test: NCI In Vivo Anticancer Drug Screen. Data for tumor model B16 Melanoma (intraperitoneal) in B6D2F1 (BDF1) mice
Conditions: endpoint: median survival time; dose: 3.0 mg/kg/injection; schedule: Q01DX009 (ip); vehicle: saline with Tween-80; higher = longer survival
Toxic doses and inconclusive results are not listed.

Cc1nc(N)nc(N)c1-c1ccc(Cl)c(Cl)c1
112 % of control
Cc1cc2nc(CBr)c(CBr)nc2cc1C
97 % of control
C/C=C1\CN(C)[C@H]2Cc3c([nH]c4ccccc34)[C@@H](c3cc4[nH]c5c(c4cc3OC)CCN3C[C@H]4C[C@H](CC)[C@H]3[C@@]5(C(=O)OC)C4)C[C@H]1C2C(=O)OC (some centres undefined)
100 % of control

Attention now turns to another entry.
## Task Quote T/C reported for `COc1cccnc1/C=N/NC(N)=S` please.
## Result 93 % of control

----------
Property: T/C; scope: individual compounds
System: BDF1 mice, B16 melanoma ip, median survival T/C
Experiment: NCI In Vivo Anticancer Drug Screen. Data for tumor model B16 Melanoma (intraperitoneal) in B6D2F1 (BDF1) mice
Details: endpoint: median survival time; dose: 200.0 mg/kg/injection; schedule: Q04DX003 (ip); vehicle: saline with Tween-80; higher = longer survival
Inconclusive results and toxic doses are left out.

Consider the following illustrative entries.
CCOC(=O)CN=NNc1[nH]ncc1C(N)=O
104 % of control
Cc1nc2c(=O)n(C)c(=O)n(C)c2n1C
105 % of control
CC(=O)OC1C2CCC(C2)C1C (centres undefined)
100 % of control

## Task Report T/C for `O=C1CCCNc2ccccc21`
## Result 103 % of control

## Task Return value of T/C for input CCOC(=O)NC1CCC1NC(=O)OCC (centres undefined) , no commentary.
## Result 95 % of control

## Task Quick one: give measured T/C for `O=C(O)CCC(=O)Nc1ccccc1C(F)(F)F`
## Result 105 % of control

## Task Consider the compound `Cc1cccc(C(=O)CC(O)(C(F)(F)F)C(F)(F)F)n1` . State its measured T/C.
## Result 100 % of control

## Task Entry `COc1ccc(-c2c(CC(=O)O)c3cc(OC)ccc3n2Cc2ccc(Cl)cc2)cc1` needs its T/C filled in; supply it.
## Result 95 % of control

## Task Given `Cc1ccc2cc3c(ccc4ccccc43)c3c2c1CC3` , respond with its T/C.
## Result 110 % of control
